System: Streptococcus pneumoniae
Assay: Tested for in vitro antibacterial activity against Streptococcus pneumoniae 6301
Assay type: functional
Observation type: MIC (µg/mL)

# Compound, Measured number
records = [
    ("O=C(O)c1cn(C2CC2)c2c(F)c(N3CCNCC3)c(F)cc2c1=O", 1),
]

(P) O=C(O)c1cn(C2CC2)c2cc(N3CCN(C(=O)Cn4nnnc4S)CC3)c(F)cc2c1=O
(Q) CO/N=C(/C(=O)NC1C(=O)N2C(C(=O)[O-])=C(CSc3nnnn3CC(=O)O)CS[C@H]12)c1csc(N)n1.[Na+] (stereo not given in full)
(R) CO/N=C(/C(=O)NC1C(=O)N2C(C(=O)[O-])=C(CO)CS[C@H]12)c1csc(N)n1.[Na+] (stereo not given in full)
QUERY: # desc sort on MIC across 3 compounds Write the labels, ordered according to the request.
RESULT: P, R, Q
(P: 64 µg/mL, R: 0.0625 µg/mL, Q: 0.0313 µg/mL)
